- Test system: 293T-HRE-GFP-luc cells
- Procedure Text: Cell-based reporter assay for IC50 determinations (HRE-luciferase, hypoxia)
- Condition: 6 h, 6 hrs hypoxia (1% O2), luminescence
Assay Endpoint: IC50

{"Molecule": "CN(C)C(=O)COc1cccc(Cn2cc(-c3nc(-c4ccc(OC(F)(F)F)cc4)no3)ccc2=O)c1", "Assay Endpoint": "IC50", "Test Result": "< 100 nM"}
{"Molecule": "COCCOc1cccc(Cn2cc(-c3noc(-c4ccc(CO)cc4)n3)ccc2=O)c1", "Assay Endpoint": "IC50", "Test Result": "100 to 1000 nM"}
{"Molecule": "CS(=O)(=O)CCCOc1cccc(Cn2cc(-c3nc(-c4ccc(OC(F)(F)F)cc4)co3)ccc2=O)c1", "Assay Endpoint": "IC50", "Test Result": "< 100 nM"}
{"Molecule": "O=c1ccc(-c2cc(-c3ccc(OC(F)(F)F)cc3)no2)cn1Cc1cccc(N2CCCS2(=O)=O)c1", "Assay Endpoint": "IC50", "Test Result": "< 100 nM"}
{"Molecule": "CN1CCN(c2cc(Cn3cccc(C(=O)Nc4ccc(OC(F)(F)F)cc4)c3=O)ccn2)CC1 [Example 9, bis-trifluoroacetate]", "Assay Endpoint": "IC50", "Test Result": "100 to 1000 nM"}

Provide only the value of recorded IC50 for `CCOc1cccc(Cn2cc(-c3nc(-c4ccc(OC(F)(F)F)cc4)no3)ccc2=O)c1` < 100 nM

Provide only the value of recorded IC50 for `C=Cc1cccc(Cn2cc(-c3nc(-c4ccc(OC(F)(F)F)cc4)no3)ccc2=O)c1` < 100 nM

Provide only the value of recorded IC50 for `O=c1ccc(-c2nc(-c3ccc(OC(F)(F)F)cc3)no2)cn1Cc1cccc(N2CCOCC2)c1` < 100 nM

Provide only the value of recorded IC50 for `O=c1ccc(-c2nc(-c3ccc(OC(F)(F)F)cc3)no2)cn1Cc1ccnc(N2CCCC2)c1` < 100 nM

Provide only the value of recorded IC50 for `CC(C)(O)c1cccc(Cn2cc(-c3noc(-c4ccc(S(=O)(=O)C(F)(F)F)cc4)n3)ccc2=O)c1` < 100 nM

Provide only the value of recorded IC50 for `COCCOc1cccc(Cn2cc(-c3noc(-c4ccc(OC)cc4)n3)ccc2=O)c1` < 100 nM

Provide only the value of recorded IC50 for `COCCOc1cccc(Cn2cc(-c3nc(-c4ccc(C5(O)CCOCC5)cc4)no3)ccc2=O)c1` 100 to 1000 nM

* * *

- Tested on: 293T-HRE-GFP-luc cells
- Procedure Text: Cell-based reporter assay for IC50 determinations (HRE-luciferase, hypoxia)
- Condition: 6 h, 6 hrs hypoxia (1% O2), luminescence
Where a name gives a salt, the structure may show the parent alone.
Recorded IC50, one value per entry.

Known IC50 results, listed for orientation:
{"Compound": "CN1CCN(c2cc(Cn3cc(-c4nnc(-c5ccc(OC(F)(F)F)cc5)o4)ccc3=O)ccn2)CC1 [Example 101, 2,2,2-trifluoroacetate]", "IC50": "100 to 1000 nM"}
{"Compound": "COCCOc1cccc(Cn2cc(-c3noc(-c4ccc(S(C)(=O)=O)cc4)n3)ccc2=O)c1", "IC50": "100 to 1000 nM"}
{"Compound": "CNC(=O)c1cccc(Cn2c(C)ccc(-c3nc(-c4ccc(OC(F)(F)F)cc4)no3)c2=O)c1", "IC50": "100 to 1000 nM"}
{"Compound": "COCCOc1cccc(Cn2cc(-c3noc(-c4ccc(C(C)(C)C)cc4)n3)ccc2=O)c1", "IC50": "100 to 1000 nM"}

API: the following record is the query input.
Provide only the value of recorded IC50 for Cc1ccc(-c2nc(-c3ccc(OC(F)(F)F)cc3)no2)c(=O)n1Cc1ccnc(N2CCOCC2)c1 [Example 18, trifluoroacetate] < 100 nM
